Target: hGPR119 (Homo sapiens)
Construct: expressed in transfected cells; host or cells: CHO cells (CHO-hGPR119)
Sequence (Q8TDV5 1-335): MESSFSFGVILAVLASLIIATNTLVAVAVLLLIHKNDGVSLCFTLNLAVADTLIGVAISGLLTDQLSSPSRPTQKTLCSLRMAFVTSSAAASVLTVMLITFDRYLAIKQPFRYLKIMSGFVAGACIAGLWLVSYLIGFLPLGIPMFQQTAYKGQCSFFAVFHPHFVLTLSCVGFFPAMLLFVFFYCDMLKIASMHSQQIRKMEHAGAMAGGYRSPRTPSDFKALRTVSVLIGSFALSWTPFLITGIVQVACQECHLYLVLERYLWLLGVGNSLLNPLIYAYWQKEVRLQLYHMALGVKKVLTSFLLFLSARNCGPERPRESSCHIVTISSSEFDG
Assay: In vitro cyclic AMP assay (Cisbio HTRF) in CHO-hGPR119 cells
Assay type: cell-based
Details: 1 h, cAMP, 1 μM, 60 min, read-out: Induction (% induction at 1 μM)
Experimental endpoint: activation at 1 µM (%)
The figure you give is taken to be in %; do not add the unit.

# annotated cases, reported activation at 1 µM shown
{"Compound": "CCc1cnc(N2CCC(C(C)Oc3nn4cc(-c5ccncc5)nc4s3)CC2)nc1 (stereo not shown) [Compound 1056]", "Experimental endpoint": "activation at 1 µM", "Result": 73}
{"Compound": "CC(C)c1noc(N2CCC([C@@H](C)Oc3nn4c(F)c(-c5ccc(S(C)(=O)=O)cc5)nc4s3)CC2)n1", "Experimental endpoint": "activation at 1 µM", "Result": 72}
{"Compound": "CC(C)OC(=O)N1CCC(c2nn3cc(-c4ccc(S(C)(=O)=O)cc4)nc3s2)CC1", "Experimental endpoint": "activation at 1 µM", "Result": 38}

// next item, activation at 1 µM requested
In: Note down activation at 1 µM recorded for `CC(C)c1noc(N2CCC([C@@H](C)Oc3nn4cc(-c5ccc(S(C)(=O)=O)nc5)nc4s3)CC2)n1`
Out: 73

###

Biological target: hGPR119 (Homo sapiens)
Construct: expressed in transfected cells; host or cells: CHO cells (CHO-hGPR119)
Sequence (Q8TDV5 1-335): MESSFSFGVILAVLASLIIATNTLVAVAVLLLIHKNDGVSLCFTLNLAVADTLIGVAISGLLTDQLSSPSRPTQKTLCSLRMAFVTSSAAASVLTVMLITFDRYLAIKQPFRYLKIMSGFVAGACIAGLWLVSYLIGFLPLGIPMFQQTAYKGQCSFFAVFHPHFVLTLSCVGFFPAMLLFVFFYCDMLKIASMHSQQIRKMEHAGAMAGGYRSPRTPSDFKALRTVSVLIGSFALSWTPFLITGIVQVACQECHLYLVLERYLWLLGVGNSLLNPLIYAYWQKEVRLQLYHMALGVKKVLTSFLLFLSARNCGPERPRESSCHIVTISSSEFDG
Experiment: In vitro cyclic AMP assay (Cisbio HTRF) in CHO-hGPR119 cells
Type: cell-based
Details: cAMP, class symbols, legend not given
Experimental endpoint: EC50

# annotated cases, reported EC50 shown
{"Compound": "CC(C)c1noc(N2CCC([C@@H](C)Oc3nn4cc(-c5ccc(S(C)(=O)=O)cc5F)nc4s3)CC2)n1 [Compound 1088]", "Result": "A++"}
{"Compound": "CC(Oc1nn2cc(-c3ccc(S(C)(=O)=O)cc3F)nc2s1)C1CCN(c2ncc(Cl)cn2)CC1 (stereo in doubt) [Compound 1090]", "Result": "A++"}
{"Compound": "CCc1cnc(N2CCC([C@H](C)Oc3nn4cc(-c5ccc(S(C)(=O)=O)cc5F)nc4s3)CC2)nc1 [Compound 1086]", "Result": "A++"}
{"Compound": "CC(C)OC(=O)N1CCC([C@H](C)Oc2nn3cc(-c4ccc(S(C)(=O)=O)cc4F)nc3s2)CC1 [Compound 1108]", "Result": "A++"}
{"Compound": "CCc1cnc(N2CCC(C(C)Oc3nn4cc(-c5ccc(S(C)(=O)=O)nc5F)nc4s3)CC2)nc1 (stereo in doubt) [Compound 1102]", "Result": "A+"}
{"Compound": "CC(C)c1noc(N2CCC(C(C)Oc3nn4cc(-c5ccncc5F)nc4s3)CC2)n1 (stereo in doubt) [Compound 1064]", "Result": "A++"}

In: Note down EC50 recorded for CC(C)c1noc(N2CCC([C@@H](C)Oc3nn4cc(-c5ccncc5)nc4s3)CC2)n1 [Compound 1059]
Out: A++

In: Note down EC50 recorded for CCCc1cnc(N2CCC([C@H](C)Oc3nn4cc(-c5ccc(S(C)(=O)=O)cc5F)nc4s3)CC2)nc1 [Compound 1085]
Out: A++

In: Note down EC50 recorded for CCCc1cnc(N2CCC(C(C)Oc3nn4cc(-c5ccc(S(C)(=O)=O)nc5)nc4s3)CC2)nc1 (stereo in doubt) [Compound 1081]
Out: A++

In: Note down EC50 recorded for CCc1cnc(N2CCC([C@@H](C)Oc3nn4cc(-c5ccc(S(C)(=O)=O)cc5)nc4s3)CC2)nc1 [Compound 1062]
Out: A+

###

Molecular target: hGPR119 (Homo sapiens, UniProt Q8TDV5)
Construct: expressed in transfected cells; host or cells: CHO cells (CHO-hGPR119)
Sequence (Q8TDV5 1-335): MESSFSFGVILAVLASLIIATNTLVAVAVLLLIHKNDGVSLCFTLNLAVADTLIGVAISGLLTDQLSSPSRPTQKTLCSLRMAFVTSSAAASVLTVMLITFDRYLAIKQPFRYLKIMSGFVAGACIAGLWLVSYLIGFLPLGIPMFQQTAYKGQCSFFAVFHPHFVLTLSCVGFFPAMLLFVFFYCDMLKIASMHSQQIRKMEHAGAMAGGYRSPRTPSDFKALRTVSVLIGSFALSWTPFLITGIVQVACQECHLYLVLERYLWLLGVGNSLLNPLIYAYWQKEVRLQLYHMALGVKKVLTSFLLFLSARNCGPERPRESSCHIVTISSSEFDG
Assay: In vitro cyclic AMP assay (Cisbio HTRF) in CHO-hGPR119 cells
Assay type: cell-based
Conditions: 1 h, cAMP, 1 μM, 60 min, read-out: Induction (% induction at 1 μM)
Where a name gives a salt, the structure may show the parent alone.
We begin with a simple list: items and their reported activation at 1 µM.
Please answer using the number first and the unit second.

# annotated cases, reported activation at 1 µM shown
{"Compound": "CS(=O)(=O)c1ccc(-c2cn3nc(C4CCN(Cc5ccccc5)CC4)sc3n2)cc1 [Compound 1019]", "activation at 1 µM": "11%"}
{"Compound": "CC(C)c1noc(N2CCC([C@@H](C)Oc3nn4cc(-c5ccc(-c6nnn[nH]6)cc5F)nc4s3)CC2)n1 [Compound 1105, hydrochloride]", "activation at 1 µM": "30%"}
{"Compound": "CCc1cnc(N2CC=C(c3nsnc3Oc3ccc(-n4cnnn4)cc3)CC2)nc1 [Compound 1005]", "activation at 1 µM": "2%"}
{"Compound": "CC(C)c1noc(C2CCN(c3nn4cc(-c5ccncc5)nc4s3)CC2)n1 [Compound 1051]", "activation at 1 µM": "7%"}
{"Compound": "CC(C)c1noc(N2CCC(Oc3nsc(-c4ccc(S(C)(=O)=O)nc4)n3)CC2)n1 [Compound 1119]", "activation at 1 µM": "7%"}
{"Compound": "CCc1cnc(N2CCC(C(C)Oc3nn4cc(-c5ccc(S(C)(=O)=O)nc5F)nc4s3)CC2)nc1 (stereo in doubt) [Compound 1102]", "activation at 1 µM": "84%"}

In: Note down activation at 1 µM recorded for CC(C)c1noc(N2CCC([C@H](C)Oc3nn4cc(-c5cc[n+]([O-])cc5)nc4s3)CC2)n1 [Compound 1068]
Out: 59%

In: Note down activation at 1 µM recorded for CCc1cnc(N2CCC(c3nsnc3C(=O)Nc3ccc(S(C)(=O)=O)cc3F)CC2)nc1 [Compound 1015]
Out: 3%

In: Note down activation at 1 µM recorded for CCCc1cnc(N2CCC(C(C)Oc3nn4cc(-c5ccc(S(C)(=O)=O)nc5)nc4s3)CC2)nc1 (stereo in doubt) [Compound 1081]
Out: 66%

In: Note down activation at 1 µM recorded for CC(C)c1noc(C2CCN(c3nn4c(Cl)c(-c5ccc(S(C)(=O)=O)cc5)nc4s3)CC2)n1 [Compound 1044]
Out: 71%

In: Note down activation at 1 µM recorded for Cc1nc(S(C)(=O)=O)ccc1-c1cn2nc(O[C@@H](C)C3CCN(c4nc(C(C)C)no4)CC3)sc2n1 [Compound 1104]
Out: 46%

###

We begin with a simple list: items and their reported activation at 1 µM.
Target: hGPR119 (Homo sapiens)
Construct: expressed in transfected cells; host or cells: CHO cells (CHO-hGPR119)
Sequence (Q8TDV5 1-335): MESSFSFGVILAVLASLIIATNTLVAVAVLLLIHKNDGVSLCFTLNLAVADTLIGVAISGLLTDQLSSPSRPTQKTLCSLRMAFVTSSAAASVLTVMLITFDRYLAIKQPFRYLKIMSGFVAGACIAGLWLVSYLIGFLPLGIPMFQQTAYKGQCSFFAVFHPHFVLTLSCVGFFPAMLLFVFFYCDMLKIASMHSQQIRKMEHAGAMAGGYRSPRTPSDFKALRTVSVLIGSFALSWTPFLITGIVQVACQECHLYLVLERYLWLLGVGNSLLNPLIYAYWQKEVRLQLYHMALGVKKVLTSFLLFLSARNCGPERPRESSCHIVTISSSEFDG
Test: In vitro cyclic AMP assay (Cisbio HTRF) in CHO-hGPR119 cells
Type: cell-based
Settings: 1 h, cAMP, 1 μM, 60 min, read-out: Induction (% induction at 1 μM)
The figure you give is taken to be in %; do not add the unit.

# annotated cases, reported activation at 1 µM shown
{"Compound": "CC(C)c1noc(N2CCC(c3cn4nc(-c5ccc(S(C)(=O)=O)cc5)sc4n3)CC2)n1 [Compound 1032]", "Result": 41}
{"Compound": "CC(Oc1nn2cc(-c3ccc(S(C)(=O)=O)cc3F)nc2s1)C1CCN(c2ncc(Cl)cn2)CC1 (stereo in doubt) [Compound 1090]", "Result": 76}

// next item, activation at 1 µM requested
In: Note down activation at 1 µM recorded for CCCc1cnc(N2CCC([C@H](C)Oc3nn4cc(-c5ccncc5F)nc4s3)CC2)nc1 [Compound 1082]
Out: 80
